# target_of_assay: Sodium/glucose cotransporter 2 (Mus musculus)
# Sequence (Q923I7 whole entry): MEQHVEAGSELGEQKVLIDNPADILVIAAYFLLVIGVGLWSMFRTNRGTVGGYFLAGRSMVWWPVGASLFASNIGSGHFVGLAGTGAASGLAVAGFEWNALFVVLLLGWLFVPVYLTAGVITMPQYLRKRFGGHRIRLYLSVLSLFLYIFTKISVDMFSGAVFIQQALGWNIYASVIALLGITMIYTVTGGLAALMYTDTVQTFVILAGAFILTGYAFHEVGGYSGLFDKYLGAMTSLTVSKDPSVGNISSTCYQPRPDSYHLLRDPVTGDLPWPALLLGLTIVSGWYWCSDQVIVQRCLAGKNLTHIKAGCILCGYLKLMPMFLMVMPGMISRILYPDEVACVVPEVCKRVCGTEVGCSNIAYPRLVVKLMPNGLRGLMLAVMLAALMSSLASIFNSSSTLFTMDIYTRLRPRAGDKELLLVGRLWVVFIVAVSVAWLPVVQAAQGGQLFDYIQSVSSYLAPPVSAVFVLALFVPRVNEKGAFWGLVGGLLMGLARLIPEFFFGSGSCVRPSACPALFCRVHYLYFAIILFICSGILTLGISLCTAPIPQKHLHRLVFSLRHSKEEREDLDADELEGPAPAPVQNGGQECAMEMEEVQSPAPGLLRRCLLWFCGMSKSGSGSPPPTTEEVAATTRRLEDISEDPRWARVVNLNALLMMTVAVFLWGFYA
# measurement_notes: Inhibition of mouse SGLT2-mediated [14C]alpha-methylglucopyranoside uptake by cell based assay
This listing pairs compounds with measured IC50.
Your answer should be a number followed by the unit of measure.

// worked examples, IC50 included
compound	IC50
CCOc1ccc(Cc2cc([C@@H]3OC(OC)[C@@H](O)[C@H](O)[C@H]3O)ccc2Cl)cc1 (mixture of isomers; 7b)	280 nM
CCOc1ccc(Cc2cc([C@]3(C)OC(OC)[C@@H](O)[C@H](O)[C@H]3O)ccc2Cl)cc1 (mixture of isomers)	220 nM
CCOc1ccc(Cc2cc([C@@H]3OC(OCC)[C@@H](O)[C@H](O)[C@H]3O)ccc2Cl)cc1 (mixture of isomers)	19 nM
CCOc1ccc(Cc2cc([C@@H]3OC(OC)[C@H](F)[C@H](O)[C@H]3O)ccc2Cl)cc1 (mixture of isomers)	220 nM
CCOc1ccc(Cc2cc([C@H]3OC(OC)[C@H](O)[C@@H](O)[C@@H]3O)ccc2Cl)cc1 (stereo not given in full)	9200 nM
COCCOc1ccc(Cc2cc([C@@H]3OC(OC)[C@@H](O)[C@H](O)[C@H]3O)ccc2Cl)cc1 (mixture of isomers)	16 nM
CCOc1ccc(Cc2cc([C@@H]3OC(OC)[C@@H](O)[C@H](O)[C@H]3O)ccc2Cl)cc1 (stereo in doubt; 6a)	7.1 nM
CCOc1ccc(Cc2cc([C@@H]3OC(O)[C@@H](O)[C@H](O)[C@H]3O)ccc2Cl)cc1 (mixture of isomers)	100 nM
CCOc1ccc(Cc2cccc([C@@H]3OC(OC)[C@@H](O)[C@H](O)[C@H]3O)c2)cc1 (mixture of isomers)	220 nM
CCOc1ccc(Cc2cc([C@@H]3OC(OC)[C@@H](O)[C@H](O)[C@H]3O)ccc2C)cc1 (mixture of isomers)	23 nM

Summary for this compound, COC1O[C@@H](c2ccc(Cl)c(Cc3ccc(Oc4nccs4)cc3)c2)[C@H](O)[C@@H](O)[C@@H]1O (mixture of isomers) : IC50 is 60 nM

Summary for this compound, CCOc1ccc(Cc2cc([C@@H]3OC(OCCN(C)C)[C@@H](O)[C@H](O)[C@H]3O)ccc2Cl)cc1 (mixture of isomers) : IC50 is 2200 nM

Summary for this compound, COC1O[C@@H](c2ccc(Cl)c(Cc3ccc(OCCO)cc3)c2)[C@H](O)[C@@H](O)[C@@H]1O (mixture of isomers) : IC50 is 9.5 nM

Summary for this compound, COC1O[C@@H](c2ccc(Cl)c(Cc3ccc(O)cc3)c2)[C@H](O)[C@@H](O)[C@@H]1O (mixture of isomers) : IC50 is 8 nM

Summary for this compound, CCOc1ccc(-c2cccc([C@@H]3OC(OC)[C@@H](O)[C@H](O)[C@H]3O)c2)cc1 (mixture of isomers) : IC50 is 1900 nM

Summary for this compound, CCOc1ccc(Cc2cc([C@@H]3OC(OC)[C@@H](O)[C@H](O)[C@H]3O)ccc2Cl)cc1 (mixture of isomers; 7c) : IC50 is 6.3 nM

Summary for this compound, COc1ccc(Sc2cc([C@@H]3OC(OC)[C@@H](O)[C@H](O)[C@H]3O)ccc2Cl)cc1 (mixture of isomers) : IC50 is 100 nM

Summary for this compound, COC1O[C@@H](c2ccc(Cl)c(Cc3ccc(OC(=S)N(C)C)cc3)c2)[C@H](O)[C@@H](O)[C@@H]1O (mixture of isomers) : IC50 is 330 nM

Summary for this compound, CCOc1ccc(Cc2cc([C@@H]3OC(OC(C)C)[C@@H](O)[C@H](O)[C@H]3O)ccc2Cl)cc1 (stereo in doubt; 9b) : IC50 is 15 nM

Summary for this compound, CCOc1ccc(Cc2cc([C@@H]3OC(OC)[C@@H](O)[C@H](O)[C@H]3O)ccc2Cl)cc1 (mixture of isomers; 7a) : IC50 is 7.1 nM

----------
This listing pairs compounds with measured pIC50.
# target_of_assay: Sodium/glucose cotransporter 2 (Homo sapiens, UniProt P31639)
# Sequence (P31639 whole entry): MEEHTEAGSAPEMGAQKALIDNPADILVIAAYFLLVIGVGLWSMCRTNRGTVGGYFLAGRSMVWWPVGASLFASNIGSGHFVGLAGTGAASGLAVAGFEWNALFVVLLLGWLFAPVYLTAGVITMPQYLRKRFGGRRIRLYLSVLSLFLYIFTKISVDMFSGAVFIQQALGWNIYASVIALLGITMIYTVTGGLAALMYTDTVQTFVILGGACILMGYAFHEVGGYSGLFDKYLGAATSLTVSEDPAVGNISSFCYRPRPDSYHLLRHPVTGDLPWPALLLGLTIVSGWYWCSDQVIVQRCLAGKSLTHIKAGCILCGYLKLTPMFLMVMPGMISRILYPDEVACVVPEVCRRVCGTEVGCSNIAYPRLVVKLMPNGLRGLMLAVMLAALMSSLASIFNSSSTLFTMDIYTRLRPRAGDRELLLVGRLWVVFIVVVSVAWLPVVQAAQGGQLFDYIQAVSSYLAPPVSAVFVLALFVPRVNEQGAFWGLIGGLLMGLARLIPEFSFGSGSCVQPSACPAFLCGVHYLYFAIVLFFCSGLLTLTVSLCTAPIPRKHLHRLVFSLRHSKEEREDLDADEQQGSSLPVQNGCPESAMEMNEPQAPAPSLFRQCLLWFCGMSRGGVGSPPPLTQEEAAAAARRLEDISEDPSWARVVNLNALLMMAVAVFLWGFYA
# measurement_notes: Inhibition of human SGLT2 expressed in HEK293 cells assessed as inhibition of [14C]alpha-methylglucopyranoside uptake
pIC50 is defined as minus the log10 of a concentration measured in mol/L.

compound	pIC50
CCOc1ccc(Cc2cc([C@@H]3OC(OC)[C@@H](O)[C@H](O)[C@H]3O)ccc2Cl)cc1 (mixture of isomers; 7b)	5.32
COC1O[C@@H](c2ccc(Cl)c(Cc3ccc(O[C@H]4CCN(C)C4)cc3)c2)[C@H](O)[C@@H](O)[C@@H]1O (mixture of isomers)	6.77
CCOc1ccc(Cc2cc([C@@H]3OC(O)[C@@H](O)[C@H](O)[C@H]3O)ccc2Cl)cc1 (mixture of isomers)	6.55
COC1O[C@@H](c2ccc(Cl)c(Cc3ccc(O)cc3)c2)[C@H](O)[C@@H](O)[C@@H]1O (mixture of isomers)	7.49

Summary for this compound, CCOc1ccc(Cc2cc([C@@H]3OC(OC)[C@@H](O)[C@H](O)[C@H]3O)ccc2Cl)cc1 (stereo in doubt; 6a) : pIC50 is 7.60

----------
# measurement_notes: Clearance in mouse at 1 mg/kg, iv
# Format: ADME, organism-based
# Set-up: dose 1 mg/kg, route intravenous
# cond: in vivo
measurement_type: clearance (mL/min/kg)
State the answer as a number, implicitly in mL/min/kg.

Summary for this compound, CCOc1ccc(Cc2cc([C@@H]3OC(OC)[C@@H](O)[C@H](O)[C@H]3O)ccc2Cl)cc1 (mixture of isomers; 7a) : clearance is 22.5

----------
# measurement_notes: AUC(last) in mouse at 10 mg/kg, po
# Type: ADME, organism-based, Plasma
# Design: time 0 - last, dose 10 mg/kg, route oral
# cond: plasma
measurement_type: AUC(0-t) (µM·h)
State the answer as a number, implicitly in µM·h.

Summary for this compound, CCOc1ccc(Cc2cc([C@@H]3OC(OC)[C@@H](O)[C@H](O)[C@H]3O)ccc2Cl)cc1 (mixture of isomers; 7a) : AUC(0-t) is 8.19

----------
# measurement_notes: AUC (0 to infinity) in mouse at 1 mg/kg, iv
# Assay type: ADME, organism-based, Plasma
# Set-up: dose 1 mg/kg, route intravenous, time infinity
# cond: plasma
measurement_type: AUC(0-inf) (µM·h)
State the answer as a number, implicitly in µM·h.

Summary for this compound, CCOc1ccc(Cc2cc([C@@H]3OC(OC)[C@@H](O)[C@H](O)[C@H]3O)ccc2Cl)cc1 (mixture of isomers; 7a) : AUC(0-inf) is 1.91

----------
# measurement_notes: Cmax in mouse at 10 mg/kg, po
# Format: ADME, organism-based
# Set-up: dose 10 mg/kg, route oral
# cond: in vivo
measurement_type: Cmax (µM)
State the answer as a number, implicitly in µM.

Summary for this molecule, CCOc1ccc(Cc2cc([C@@H]3OC(OC)[C@@H](O)[C@H](O)[C@H]3O)ccc2Cl)cc1 (mixture of isomers; 7a) : Cmax is 4.38

----------
# measurement_notes: Mean resident time in mouse at 1 mg/kg, iv
# Format: ADME, organism-based
# Parameters: dose 1 mg/kg, route intravenous
# cond: in vivo
measurement_type: MRT (h)
State the answer as a number, implicitly in h.

Summary for this compound, CCOc1ccc(Cc2cc([C@@H]3OC(OC)[C@@H](O)[C@H](O)[C@H]3O)ccc2Cl)cc1 (mixture of isomers; 7a) : MRT is 1.62

----------
# measurement_notes: AUC (0 to infinity) in mouse at 10 mg/kg, po
# Format: ADME, organism-based, Plasma
# Parameters: time infinity, dose 10 mg/kg, route oral
# cond: plasma
measurement_type: AUC(0-inf) (µM·h)
State the answer as a number, implicitly in µM·h.

Summary for this compound, CCOc1ccc(Cc2cc([C@@H]3OC(OC)[C@@H](O)[C@H](O)[C@H]3O)ccc2Cl)cc1 (mixture of isomers; 7a) : AUC(0-inf) is 11.7

----------
# measurement_notes: Mean resident time in mouse at 10 mg/kg, po
# Format: ADME, organism-based
# Parameters: dose 10 mg/kg, route oral
# cond: in vivo
measurement_type: MRT (h)
State the answer as a number, implicitly in h.

Summary for this compound, CCOc1ccc(Cc2cc([C@@H]3OC(OC)[C@@H](O)[C@H](O)[C@H]3O)ccc2Cl)cc1 (mixture of isomers; 7a) : MRT is 4.6

----------
# measurement_notes: Apparent oral clearance in mouse at 10 mg/kg, po
# Format: ADME, organism-based
# Parameters: dose 10 mg/kg, route oral
# cond: in vivo
measurement_type: CL/F
Your answer should be a number followed by the unit of measure.

Summary for this compound, CCOc1ccc(Cc2cc([C@@H]3OC(OC)[C@@H](O)[C@H](O)[C@H]3O)ccc2Cl)cc1 (mixture of isomers; 7a) : CL/F is 35.4 mL/min/kg

----------
# measurement_notes: Tmax in mouse at 10 mg/kg, po
# Type: ADME, organism-based
# Design: dose 10 mg/kg, route oral
# cond: in vivo
measurement_type: Tmax (min)
State the answer as a number, implicitly in min.

Summary for this compound, CCOc1ccc(Cc2cc([C@@H]3OC(OC)[C@@H](O)[C@H](O)[C@H]3O)ccc2Cl)cc1 (mixture of isomers; 7a) : Tmax is 22.8

Hello, the source for this data is ChEMBL document CHEMBL1156071, in case you need it.
